Kindly state pEC50 for each of the entries shown.
- system tested: T1, human C16orf54 (human, UniProt Q6UWD8 1-224)
- T1 construct: also called huC16orf54; hC16orf54
- T1 sequence: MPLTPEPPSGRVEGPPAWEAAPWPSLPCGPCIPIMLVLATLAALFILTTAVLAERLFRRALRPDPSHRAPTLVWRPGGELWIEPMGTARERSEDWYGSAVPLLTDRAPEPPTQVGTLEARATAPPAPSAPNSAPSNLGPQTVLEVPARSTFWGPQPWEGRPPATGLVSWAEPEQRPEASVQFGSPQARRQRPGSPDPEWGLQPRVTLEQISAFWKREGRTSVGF
- assay: flow cytometry titration, KG1 cells (endogenous human C16orf54)
Answers are plain numbers, as −log10 of the molar value.

Give one value of pEC50 per listed binder.
1. R29-8-58C (antibody, V domains shown, Murine monoclonal antibody from a hybridoma) VH: EVKLVESGGGLVKPGGSLKFSCAASGFTFSSYAVSWVRQTPEKRLEWVASITSGGRSYYPDSVKGRFTISRDNARSMLYLHMSSLRSEDTAMYYCTRGWDENDLWGQGTTLTVSS VL: DVVMTQTPLSLFVSLGDQASISCRSSQSLLYSNGNTYLHWYLQRPGQSPQLLIYKVSNRFSGVPDRFSGSGSGTDFTLKISRVEAEDLGVYFCSQTTHVPWTFGGGTKLEIK
2. R29-8-120B (antibody, V domains shown, Murine monoclonal antibody from a hybridoma) VH: KVNLVESGGGLVKAGGSLKLSCAASGFTFSIYAMSWFRQTPEKRLEWVASITGGGTNFYPDSVRGRFTISRDNVRNILYLQMSSLRSEDTAMYYCARGWDENDYWGQGTTLTVSS VL: DVVMTQTPLSLPVSLGDQASISCRSSQSLVYSNGNTYLHWYLQKPGQSPKLLIYKVSNRFSGVPDRFSGSGSGTDFTLKISRVEAEDLGVYFCSQSTHVPWTFGGGTKLEIK

Response line:
[9.22, 8.59]
